Molecular target: receptor 5.24 (Carassius auratus, UniProt Q9PW88)
Construct: The receptor 5.24 full length cDNA detects 1-2 bands in genomic DNA blots; expressed in transfected cells; host or cells: HEK 293 cells expressing SV40 large T antigen (293-TSA)
Sequence (Q9PW88 25-877): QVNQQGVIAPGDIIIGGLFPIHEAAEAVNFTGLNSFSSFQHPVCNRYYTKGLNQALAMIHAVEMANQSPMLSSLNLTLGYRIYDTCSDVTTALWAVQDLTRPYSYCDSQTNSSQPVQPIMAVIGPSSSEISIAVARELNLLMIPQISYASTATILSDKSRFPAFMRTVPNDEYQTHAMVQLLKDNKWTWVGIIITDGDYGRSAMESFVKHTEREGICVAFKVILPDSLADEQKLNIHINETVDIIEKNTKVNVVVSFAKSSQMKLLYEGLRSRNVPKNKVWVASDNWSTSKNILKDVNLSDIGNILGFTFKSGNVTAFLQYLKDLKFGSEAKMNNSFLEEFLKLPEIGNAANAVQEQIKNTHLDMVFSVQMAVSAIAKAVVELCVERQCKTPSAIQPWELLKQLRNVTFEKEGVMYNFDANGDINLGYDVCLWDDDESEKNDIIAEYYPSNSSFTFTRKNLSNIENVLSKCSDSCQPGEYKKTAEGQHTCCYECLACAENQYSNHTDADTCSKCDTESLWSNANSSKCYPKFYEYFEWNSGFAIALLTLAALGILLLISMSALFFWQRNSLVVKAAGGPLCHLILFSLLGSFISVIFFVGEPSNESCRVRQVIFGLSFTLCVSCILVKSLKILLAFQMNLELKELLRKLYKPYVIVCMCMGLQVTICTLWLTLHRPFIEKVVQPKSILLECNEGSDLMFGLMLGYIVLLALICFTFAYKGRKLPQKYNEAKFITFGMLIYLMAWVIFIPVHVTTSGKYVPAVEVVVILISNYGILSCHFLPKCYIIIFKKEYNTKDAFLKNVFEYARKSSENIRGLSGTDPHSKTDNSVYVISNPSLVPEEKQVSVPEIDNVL
Assay: biochemical
Format: binding
Settings: comparative binding studies
metric: binding to receptor 5.24, in words

// known answers, use as guide
1. N[C@@H](Cc1ccc(O)cc1)C(=O)O | low affinities
2. N[C@@H](Cc1c[nH]cn1)C(=O)O | low affinities
3. NCCS(=O)(=O)O | no specific interactions
4. NCCC(=O)N[C@@H](Cc1cnc[nH]1)C(=O)O | no specific interactions

Provide binding to receptor 5.24, in words values for the following items, in order.
1. NCCCC(=O)O
2. N[C@@H](Cc1ccccc1)C(=O)O
3. N=C(N)NCCC[C@H](N)C(=O)O
4. O=C(O)[C@@H]1CCCN1
5. N[C@@H](Cc1c[nH]c2ccccc12)C(=O)O
6. NCCCC[C@H](N)C(=O)O

Output:
["no specific interactions", "low affinities", "highest affinities", "low affinities", "low affinities", "highest affinities"]
